Provenance of the data: ChEMBL document CHEMBL3861959

assay-text: Selectivity index, ratio of CC50 for human MT4 cells to EC50 for HIV2 ROD
Assay type: toxicity, cell-based
condition-context: read-out: Ratio CC50/EC50
metric: selectivity ratio

| compound-structure-string | observed-measurement |
| --- | --- |
| CC(=O)Nc1ccc(OCc2nnc(SCC(=O)Nc3ccc([N+](=O)[O-])cc3)n2Cc2ccccc2)cc1 | < 1 |
| CCOC(=O)c1ccc(NC(=O)CSc2nnc(COc3ccc(NC(C)=O)cc3)n2Cc2ccccc2)cc1 | < 1 |
| CC(=O)Nc1ccc(OCc2n[nH]c(=S)n2Cc2ccccc2)cc1 | < 1 |
| Cc1ccc(C(C)C)c(OCc2nnc(SCC(=O)Nc3ccc(Br)cc3)n2Cc2ccccc2)c1 | < 1 |
| CCOC(=O)c1ccc(NC(=O)CSc2nnc(COc3cc(C)ccc3C(C)C)n2Cc2ccccc2)cc1 | < 1 |
| CC(=O)Nc1ccc(OCc2nnc(SCC(=O)Nc3ccc(S(N)(=O)=O)cc3)n2Cc2ccccc2)cc1 | 1 |
